- Test system: wheat
- test-method-notes: Phytotoxicity test for upland field crops (foliar treatment test)
- Type: in vivo
- run-parameters: 50 g ai/ha, Wheat (7 days after treatment)
readout-label: Foliar treatment phytotoxicity, Wheat
Lab note: record just the number, no unit beside it.

Under wheat: Foliar treatment phytotoxicity, Wheat value of COC(=O)OC(C)N(C(=O)c1ccc(C(F)(F)F)nc1COCc1nnn(C)n1)c1nnnn1C (stereo not shown) ? 1

Under wheat: Foliar treatment phytotoxicity, Wheat value of `Cn1nc(COCc2nc(C(F)(F)F)ccc2C(=O)Nc2nnnn2C)nc1CF` ? 0

Under wheat: Foliar treatment phytotoxicity, Wheat value of `COc1nc(COCc2nc(C(F)(F)F)ccc2C(=O)Nc2nnnn2C)nn1C` ? 1

Under wheat: Foliar treatment phytotoxicity, Wheat value of `Cn1nnc(CSCc2nc(C(F)(F)F)ccc2C(=O)Nc2nnnn2C)n1` ? 0
